- Test protocol: folding enthalpy; higher = less favourable; fluorescence melt of hairpins on a sequencing array, two-state fit
- Run parameters: sodium 0.088 M
Listed next: entries and their corresponding folding enthalpy.
I only need the number, in kcal/mol, no unit after it.

| Sequence input | Recorded result |
| --- | --- |
| GCACTCGAAAGAGAATGC ((((((....)))..))) | -24.6 |
| GGGTGAGGAAACTCGCTC (.(.(((....))).).) | -21.6 |
| GATGCGCCGAAAGGCATC (((..(((....)))))) | -12.4 |
| GGTTGGCCGAAAGGCACC (((..(((....)))))) | -12.8 |
| GCATGTGGAAACATGTGC (((..((....))..))) | -31.6 |

Now for another entry.
input: Dear colleague, I am looking for the recorded folding enthalpy of the following sequence: GTTTGGGGAAACCCAGAC ((.((((....)))).))
output: -26.4

Reference for the values: the array DNA melting data of Ke et al. (doi:10.1101/2024.01.08.574731)
